Origin of the recorded values: ChEMBL document CHEMBL1131666

- target of assay: Collagenase 3 (Homo sapiens, UniProt P45452)
readout kind: IC50
Provide the measurement as a number trailed by its unit.

### Prompt Report measured IC50; entry is COc1ccc(S(=O)(=O)CCC(C)S)cc1 (stereo unspecified)
### Response 32 nM

----------
- target of assay: Neutrophil collagenase (Homo sapiens)
- Sequence (P22894 whole entry): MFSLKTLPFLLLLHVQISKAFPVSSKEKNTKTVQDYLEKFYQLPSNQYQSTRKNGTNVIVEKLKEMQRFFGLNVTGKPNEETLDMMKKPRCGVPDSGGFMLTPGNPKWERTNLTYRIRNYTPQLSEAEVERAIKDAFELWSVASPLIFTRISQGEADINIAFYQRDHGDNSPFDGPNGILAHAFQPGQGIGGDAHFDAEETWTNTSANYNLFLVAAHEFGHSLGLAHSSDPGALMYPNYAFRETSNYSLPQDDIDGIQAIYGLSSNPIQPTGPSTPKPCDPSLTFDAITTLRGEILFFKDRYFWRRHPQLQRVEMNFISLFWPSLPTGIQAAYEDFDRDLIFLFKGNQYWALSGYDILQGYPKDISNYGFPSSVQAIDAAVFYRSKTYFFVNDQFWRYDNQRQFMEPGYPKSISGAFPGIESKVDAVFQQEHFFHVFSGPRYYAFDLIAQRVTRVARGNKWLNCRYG
- assay protocol: Inhibition of Matrix metalloprotease-8
Entries and their measured pIC50 follow.
Keep it numeric: pIC50 is minus log10 of the concentration in mol/L.

### Prompt Note down pIC50 recorded for O=S(=O)(CCCS)c1ccc(Sc2ccccc2)cc1
### Response 7.44

Turning now to a further record.
### Prompt Read the entry O=S(=O)(CCCS)c1ccc(Oc2ccccc2)cc1 and write its reported pIC50.
### Response 8.40
